In this section, each of the molecules is paired with its reported pIC50.
- tested target: full-length beta-Catenin (Uniprot ID P35222) (Homo sapiens)
- Construct: 10 nM full-length beta-Catenin (Uniprot ID P35222)
- Sequence (P35222 whole entry): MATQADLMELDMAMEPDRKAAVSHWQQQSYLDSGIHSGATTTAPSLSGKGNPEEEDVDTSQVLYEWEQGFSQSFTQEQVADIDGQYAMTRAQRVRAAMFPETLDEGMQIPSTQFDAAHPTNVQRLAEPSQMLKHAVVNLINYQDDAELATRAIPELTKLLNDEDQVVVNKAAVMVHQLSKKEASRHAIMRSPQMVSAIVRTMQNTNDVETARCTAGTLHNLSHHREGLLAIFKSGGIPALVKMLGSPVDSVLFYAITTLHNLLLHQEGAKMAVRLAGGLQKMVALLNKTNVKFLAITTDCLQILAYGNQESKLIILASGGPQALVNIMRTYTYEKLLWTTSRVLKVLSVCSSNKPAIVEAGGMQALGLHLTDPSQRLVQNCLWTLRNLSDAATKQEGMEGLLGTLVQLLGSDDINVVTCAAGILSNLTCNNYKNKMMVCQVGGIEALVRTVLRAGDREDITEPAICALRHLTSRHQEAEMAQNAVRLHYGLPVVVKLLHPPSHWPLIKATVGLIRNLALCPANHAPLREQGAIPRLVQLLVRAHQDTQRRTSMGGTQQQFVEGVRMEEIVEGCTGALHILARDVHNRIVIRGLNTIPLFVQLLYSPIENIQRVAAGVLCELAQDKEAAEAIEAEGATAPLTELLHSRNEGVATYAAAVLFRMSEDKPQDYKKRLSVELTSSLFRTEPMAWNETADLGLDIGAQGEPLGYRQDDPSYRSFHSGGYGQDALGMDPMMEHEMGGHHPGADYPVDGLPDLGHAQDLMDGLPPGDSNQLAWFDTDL
- test protocol: Fluorescence polarization IC50 (beta-catenin / 5FAM-TCF4 10-53 competition)
- Format: binding
- measurement context: fluorescence polarization; read-out: beta-Catenin FP IC50
pIC50: −log10 of the molar value.

molecule	pIC50
CC(=O)N1CCC[C@]12CC=CCCCC1(CCCC=CCCCOC(=O)N3CC[C@@](C(=O)N[C@@H](Cc4ccsc4)C(=O)N[C@@H](Cc4csc5ccccc45)C(=O)N[C@@H](CCC(N)=O)C(N)=O)(C3)NC(=O)[C@H](CC(C)C)NC(=O)[C@H](Cc3ccccc3)NC(=O)[C@H](C)NC(=O)[C@H](C)NC(=O)[C@H](CC(=O)O)NC(=O)[C@H](CO)NC1=O)NC(=O)[C@H](CC(C)(C)C)NC(=O)[C@H](CC(=O)O)NC2=O (some centres unmarked) [I-1209]	6.32
CC(=O)N1CCC[C@]12CC=CCCCC1(CCCC=CCCCOC(=O)N3CC[C@@](C(=O)N[C@@H](Cc4ccsc4)C(=O)N[C@@H](Cc4csc5ccccc45)C(=O)N[C@@H](CC(N)=O)C(=O)N[C@@H](C)C(=O)N[C@@H](C)C(=O)N[C@@H](C)C(=O)N[C@@H](C)C(=O)N[C@@H](C)C(N)=O)(C3)NC(=O)[C@H](CC(C)C)NC(=O)[C@H](Cc3ccccc3)NC(=O)[C@H](C)NC(=O)[C@H](C)NC(=O)[C@H](Cc3cccc(C(=O)O)c3)NC(=O)[C@H](CC(=O)O)NC1=O)NC(=O)[C@H](CC(C)(C)C)NC(=O)[C@H](CC(=O)O)NC2=O (some centres unmarked) [I-2268]	7.89

###

Recorded chromatographic logD, one value per entry.
- test protocol: CHI Log D procedure
- Format: physicochemical
- measurement context: pH 7.4, CHI Log D

compound	chromatographic logD
CC(=O)N1CCC[C@]12CC=CCCCC1(CCCC=CCCCCCC[C@@](C)(C(=O)N[C@@H](Cc3cccc(F)c3)C(=O)N[C@@H](Cc3csc4ccccc34)C(=O)N[C@@H](Cc3c[nH]cn3)C(N)=O)NC(=O)[C@H](CCC(N)=O)NC(=O)[C@H](Cc3ccsc3)NC(=O)[C@H](C)NC(=O)[C@H](C)NC(=O)[C@H](CCC(=O)O)NC(=O)[C@H](CC(=O)O)NC1=O)NC(=O)[C@H](C)NC(=O)[C@H](CC(=O)O)NC2=O (stereo partly drawn)	2.13
CC(=O)N1CCC[C@]12CC=CCCCC1(CCCC=CCCCOC(=O)N3CC[C@@](C(=O)N[C@@H](Cc4ccccc4Cl)C(=O)N[C@@H](Cc4csc5ccccc45)C(=O)N[C@@H](CCO)C(N)=O)(C3)NC(=O)[C@H](Cc3ccccc3)NC(=O)[C@H](Cc3ccccc3)NC(=O)[C@H](C)NC(=O)[C@H](C)NC(=O)[C@H](CN(CC(=O)O)CC(F)(F)F)NC(=O)[C@H](CC(=O)O)NC1=O)NC(=O)[C@H](CC(C)(C)C)NC(=O)[C@H](CC(=O)O)NC2=O (stereo partly drawn)	2.56
CC[C@H](C)[C@@H]1NC(=O)[C@H](CC(=O)O)NC(=O)[C@]2(CC=CCCCC3(CCCC=CCCCCCC[C@@](C)(C(=O)N[C@@H](Cc4ccccc4)C(=O)N[C@@H](Cc4csc5ccccc45)C(=O)N[C@@H](CCC(N)=O)C(N)=O)NC(=O)[C@H](CCC(N)=O)NC(=O)[C@H](Cc4ccccc4)NC(=O)[C@H](C)NC(=O)[C@H](C)NC(=O)[C@H](CCC(N)=O)NC(=O)[C@H](CC(=O)O)NC3=O)NC1=O)CCCN2C(C)=O (stereo partly drawn)	2.62
